The reported measurements were obtained from paper PMC9482650.

Target: Inadl_6, Q8NI35
Sequence (Q8NI35 1058-1167): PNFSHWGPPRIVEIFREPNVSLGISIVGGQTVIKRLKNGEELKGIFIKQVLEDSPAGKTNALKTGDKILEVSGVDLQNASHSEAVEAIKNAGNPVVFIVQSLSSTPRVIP
Experiment: holdup assay
Parameters: key: below the threshold = too weak to quantify, mostly under pKd 3.1 to 4
Settings: plain residues with an end cap or a label only (N-terminal biotin on a linker: ado-ado)
readout-label: pKd

Solved cases below.
{"binder": "ARESQKVSHV [FAM110B, Q8TC76]", "pKd": 4.05}
{"binder": "LPAVCYDIDI [PTTG2, Q9NZH5]", "pKd": "below the threshold"}
{"binder": "NNNVVKVDSV [MTNR1A, P48039]", "pKd": "below the threshold"}
{"binder": "NTLNRKTTPV [CACNG8, Q8WXS5]", "pKd": "below the threshold"}
{"binder": "SFISKKEWYV [NECTIN1, Q15223]", "pKd": "below the threshold"}
{"binder": "DTKNYKQTSV [CRIPT, Q9P021]", "pKd": "below the threshold"}
{"binder": "DDASLPVSDV [PLEKHA1, Q9HB21]", "pKd": 3.65}

Now look at this entry.
IN: Quick check: pKd of KPGKGSETVV [FZD4, Q9ULV1] ?
OUT: 3.56
